measured-on: Furin (Homo sapiens)
Sequence (P09958 whole entry): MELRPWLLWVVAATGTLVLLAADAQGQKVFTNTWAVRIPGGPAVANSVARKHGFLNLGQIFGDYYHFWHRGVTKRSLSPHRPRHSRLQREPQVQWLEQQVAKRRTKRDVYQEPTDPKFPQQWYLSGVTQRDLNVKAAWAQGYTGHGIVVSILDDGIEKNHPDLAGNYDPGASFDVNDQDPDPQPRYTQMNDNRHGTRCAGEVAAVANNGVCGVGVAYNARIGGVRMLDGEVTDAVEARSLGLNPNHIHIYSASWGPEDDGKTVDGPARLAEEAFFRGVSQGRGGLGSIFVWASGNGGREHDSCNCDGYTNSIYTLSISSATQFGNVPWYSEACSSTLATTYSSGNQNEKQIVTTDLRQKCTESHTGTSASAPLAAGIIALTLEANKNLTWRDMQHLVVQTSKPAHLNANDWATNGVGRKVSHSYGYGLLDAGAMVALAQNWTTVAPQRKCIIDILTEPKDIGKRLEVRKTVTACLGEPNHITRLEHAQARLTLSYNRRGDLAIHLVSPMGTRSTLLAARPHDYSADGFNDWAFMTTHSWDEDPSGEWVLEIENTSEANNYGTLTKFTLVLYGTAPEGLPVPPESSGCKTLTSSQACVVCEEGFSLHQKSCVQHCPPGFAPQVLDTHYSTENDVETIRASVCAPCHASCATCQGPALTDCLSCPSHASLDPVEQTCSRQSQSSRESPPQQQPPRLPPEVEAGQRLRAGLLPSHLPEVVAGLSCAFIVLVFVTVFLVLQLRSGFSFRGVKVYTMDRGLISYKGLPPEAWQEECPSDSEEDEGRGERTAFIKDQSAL
experimental-protocol: Inhibition of recombinant soluble human furin using pyroGlu-Arg-Thr-Lys-Arg-methyl-coumaryl-7-amide as substrate measured after 1 hr
Where a SMILES comes first, the peptide text is derived from it.
measured-attribute: pKi
When answering, recall that pKi equals minus log10 of the concentration in mol/L, and write that number alone.

CC(=O)N[C@@H](CCCNC(=N)N)C(=O)N[C@@H](C)C(=O)N[C@@H](CCC(N)=O)C(=O)N[C@@H](CCCNC(=N)N)C(=O)N[C@@H](CCCNC(=N)N)C(=O)N[C@@H](CCCCN)C(=O)N[C@@H](CCCCN)C(=O)N[C@@H](CCCNC(=N)N)C(=O)N[C@H](C(N)=O)[C@@H](C)O
7.70
CC[C@H](C)[C@H](NC(=O)[C@H](CCCNC(=N)N)NC(=O)[C@H](C)NC(=O)[C@H](CCC(=O)O)NC(C)=O)C(=O)N[C@@H](CCCNC(=N)N)C(=O)N[C@@H](CCCCN)C(=O)N[C@@H](CCCCN)C(=O)N[C@@H](CCCNC(=N)N)C(=O)N[C@H](C(N)=O)[C@@H](C)O (Ac-EARIRKKRT-NH2)
7.92
CC(=O)NCC(=O)N[C@@H](C)C(=O)N[C@@H](CCCNC(=N)N)C(=O)N[C@@H](CCCNC(=N)N)C(=O)N[C@@H](CCCNC(=N)N)C(=O)N[C@@H](CCCCN)C(=O)N[C@@H](CCCCN)C(=O)N[C@@H](CCCNC(=N)N)C(=O)N[C@H](C(N)=O)[C@@H](C)O
7.96
CC(=O)N[C@H](CO)C(=O)N[C@@H](C)C(=O)N[C@@H](CCCNC(=N)N)C(=O)N[C@@H](CCCNC(=N)N)C(=O)N[C@@H](CCCNC(=N)N)C(=O)N[C@@H](CCCCN)C(=O)N[C@@H](CCCCN)C(=O)N[C@@H](CCCNC(=N)N)C(=O)N[C@H](C(N)=O)[C@@H](C)O
7.96
CSCC[C@H](NC(=O)[C@H](CCCNC(=N)N)NC(C)=O)C(=O)N[C@@H](CCCNC(=N)N)C(=O)N[C@@H](CCCNC(=N)N)C(=O)N[C@@H](CCCNC(=N)N)C(=O)N[C@@H](CCCCN)C(=O)N[C@@H](CCCCN)C(=O)N[C@@H](CCCNC(=N)N)C(=O)N[C@H](C(N)=O)[C@@H](C)O
7.42

Now consider the entry below.
Fill in: pKi of CC(=O)N[C@@H](CCCNC(=N)N)C(=O)N[C@@H](C)C(=O)N[C@@H](CCCCN)C(=O)N[C@@H](CCCNC(=N)N)C(=O)N[C@@H](CCCNC(=N)N)C(=O)N[C@@H](CCCCN)C(=O)N[C@@H](CCCCN)C(=O)N[C@@H](CCCNC(=N)N)C(=O)N[C@H](C(N)=O)[C@@H](C)O is ___
7.82
